- system_under_test: Human CD16B^H140Y fused to IgG Fc (human) (UniProt O75015)
- Sequence (O75015 other isoform, or with tags, fused parts or gaps H140Y H140Y limits assumed): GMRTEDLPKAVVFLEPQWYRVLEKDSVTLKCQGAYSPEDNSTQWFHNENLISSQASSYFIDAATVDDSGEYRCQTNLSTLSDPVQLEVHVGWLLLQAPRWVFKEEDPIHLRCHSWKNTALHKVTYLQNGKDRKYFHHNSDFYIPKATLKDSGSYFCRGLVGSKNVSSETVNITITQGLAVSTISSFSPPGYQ
- assay_explanation: ELISA, coated antigen-IgG Fc
measure: EC50 (nM)

binder	measure	reported_measurement
scFv CD16A (CD16-3) (scFv) scFv: QVQLVQSGAEVKKPGESLKVSCKASGYTFTNYYMQWVRQAPGQGLEWMGVINPGGGSTSYAQKFQGRVTMTRDTSTSTVYMELSSLRSEDTAVYYCARGSAYYYDFADYWGQGTLVTVSSGGSGGSGGSGGSGGSGGSSYVLTQPSSVSVAPGQTARITCGGHNIGSQSVHWYQQKPGQAPVLVIYQDSKRPSGIPERFSGSNSGNTATLTISGTQAMDEADYYCQVWDNYSVVFGGGTKLTVLAAAGSHHHHHH	EC50	1.3
scFv CD16A (CD16-4) (scFv) scFv: QVQLVQSGAEVKKPGESLKVSCKASGYSFSDFYIQWVRQAPGQGLEWMGIINPGGASTTYAQKFQGRVTMTRDTSTSTVYMELSSLRSEDTAVYYCARGSAYYYDFADYWGQGTLVTVSSGGSGGSGGSGGSGGSGGSSYVLTQPSSVSVAPGQTARITCGGYNIGRQSVHWYQQKPGQAPVLVIYQDSKRPSGIPERFSGSNSGNTATLTISGTQAMDEADYYCQVWDNYTVVFGGGTKLTVLAAAGSHHHHHH	EC50	1.7
scFv CD16A (CD16-2) (scFv, also called CD16-2 scFv) scFv: QVQLVQSGAEVKKPGESLKVSCKASGYTFTSYYMHWVRQAPGQGLEWMGAIEPMYGSTSYAQKFQGRVTMTRDTSTSTVYMELSSLRSEDTAVYYCARGSAYYYDFADYWGQGTLVTVSSGGSGGSGGSGGSGGSGGSSYVLTQPSSVSVAPGQTATISCGGHNIGSKNVHWYQQRPGQSPVLVIYQDNKRPSGIPERFSGSNSGNTATLTISGTQAMDEADYYCQVWDNYSVLFGGGTKLTVLAAAGSHHHHHH	EC50	1.2
